Just for reference, patent US8404738B2 is where these values come from.

# maps each entry to its EC50
# TEST_TARGET: HDAC6 (Homo sapiens, UniProt Q9UBN7)
# Construct: endogenous in cells
# Sequence (Q9UBN7 whole entry): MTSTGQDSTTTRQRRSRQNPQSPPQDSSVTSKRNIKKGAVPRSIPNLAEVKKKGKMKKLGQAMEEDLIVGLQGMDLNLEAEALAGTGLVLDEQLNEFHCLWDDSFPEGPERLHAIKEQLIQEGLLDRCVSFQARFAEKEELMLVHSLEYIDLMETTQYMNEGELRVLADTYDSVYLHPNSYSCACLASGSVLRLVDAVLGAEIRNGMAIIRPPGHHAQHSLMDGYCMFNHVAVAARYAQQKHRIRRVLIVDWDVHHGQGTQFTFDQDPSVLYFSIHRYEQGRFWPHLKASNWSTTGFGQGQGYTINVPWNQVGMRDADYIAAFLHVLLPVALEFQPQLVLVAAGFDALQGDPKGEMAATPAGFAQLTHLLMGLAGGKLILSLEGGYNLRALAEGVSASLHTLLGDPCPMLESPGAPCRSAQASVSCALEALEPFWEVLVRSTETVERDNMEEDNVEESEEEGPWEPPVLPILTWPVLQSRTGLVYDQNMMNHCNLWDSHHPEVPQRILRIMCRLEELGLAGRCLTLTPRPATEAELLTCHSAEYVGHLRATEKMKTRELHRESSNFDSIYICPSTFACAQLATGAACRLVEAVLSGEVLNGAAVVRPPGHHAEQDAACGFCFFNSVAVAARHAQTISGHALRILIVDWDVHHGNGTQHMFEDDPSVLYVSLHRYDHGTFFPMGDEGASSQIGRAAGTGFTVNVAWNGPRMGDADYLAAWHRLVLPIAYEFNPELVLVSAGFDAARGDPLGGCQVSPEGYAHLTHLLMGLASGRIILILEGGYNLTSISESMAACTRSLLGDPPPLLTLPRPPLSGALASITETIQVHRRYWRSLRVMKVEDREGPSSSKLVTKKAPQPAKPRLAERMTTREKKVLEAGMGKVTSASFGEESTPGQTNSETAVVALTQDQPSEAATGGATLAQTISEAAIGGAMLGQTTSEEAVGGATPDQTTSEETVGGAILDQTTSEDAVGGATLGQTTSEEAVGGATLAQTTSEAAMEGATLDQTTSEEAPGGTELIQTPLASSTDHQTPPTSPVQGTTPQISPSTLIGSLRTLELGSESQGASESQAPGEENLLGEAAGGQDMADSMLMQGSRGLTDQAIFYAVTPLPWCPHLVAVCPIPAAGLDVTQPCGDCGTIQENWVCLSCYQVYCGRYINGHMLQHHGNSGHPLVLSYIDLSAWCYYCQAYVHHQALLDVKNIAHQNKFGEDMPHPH
# ASSAY_DETAILS: Tubulin acetylation cytoblot assay (A549 cells)
# ASSAY_CONTEXT: 17-18 h incubation, tubulin acetylation as marker of HDAC6 inhibition, read-out: Tub-Ac EC50

>>> reading("CC(C)(c1ccc2ccccc2c1)N1CCC(Nc2ccc(C(=O)NO)cc2)C1=O (stereo not drawn) [Example 53]")
"3320 nM"
>>> reading("CC1(Nc2ccc(C(=O)NO)cc2)CCN(C(C)(C)c2ccccc2)C1=O (stereo not drawn) [Example 64]")
"10200 nM"
>>> reading("CS(=O)(=O)c1ccc(N2CCC(Nc3ccc(C(=O)NO)cc3)C2=O)cc1 (stereo not drawn) [Example 17]")
"11900 nM"
>>> reading("CC(C)Oc1ccc(N2CCC(Nc3ccc(C(=O)NO)cc3)C2=O)cc1 (stereo not drawn) [Example 10]")
"2150 nM"
>>> reading("O=C(NO)c1ccc(NC2CCN(c3ccccc3Cl)C2=O)cc1 (stereo not drawn) [Example 5]")
"6670 nM"

**Q:** Quick one: EC50 for O=C(NO)c1ccc(NC2CCN(c3cccc(Cl)c3)C2=O)cc1 (stereo not drawn) [Example 6] ?
**A:** 2820 nM

**Q:** Do the same for CC1(Nc2ccc(C(=O)NO)cc2)CCN(c2ccccc2)C1=O (stereo not drawn) [Example 57] please
**A:** 2640 nM

**Q:** Do the same for CC(C)(c1ccc(Cl)cc1)N1CCC(Nc2ccc(C(=O)NO)cc2)C1=O (stereo not drawn) [Example 50] please
**A:** 8620 nM

**Q:** Do the same for C[C@H]1[C@H](Nc2ccc(C(=O)NO)cc2)CC(=O)N1c1ccc(Cl)cc1 (racemic) [Example 77] please
**A:** 1250 nM

**Q:** Do the same for O=C(NO)c1ccc(NC2CCN(c3cccc(-c4cnco4)c3)C2=O)cc1 (stereo not drawn) [Example 35] please
**A:** 2040 nM

**Q:** Do the same for CC(C)c1ccc(N2CCC(Nc3ccc(C(=O)NO)cc3)C2=O)cc1 (stereo not drawn) [Example 14] please
**A:** 2610 nM

**Q:** Do the same for CC1(Nc2ccc(C(=O)NO)cc2)C(=O)N(c2ccc(Cl)cc2)c2ccc(F)cc21 (stereo not drawn) [Example 97] please
**A:** 200 nM
